Test system: 45-bp dsDNA
Experiment: DNA intercalation: acridine orange displacement from dsDNA by fluorescence polarization
Type: binding
Details: Supplementary Table 2; acridine orange displacement compared to mitoxantrone
Readout Kind: % intercalation at 30 µM (%)
Numeric answer only, unit % assumed.

INSERT INTO assay_data (compound, target_entity, recorded_measurement) VALUES
  ('Cc1nc2nc(C)c(Br)c(O)n2n1', '45-bp dsDNA', -0.5),
  ('O=C(O)C1CSC(c2cc(Br)c(O)c(Br)c2)N1 (stereo not drawn)', '45-bp dsDNA', -6.3),
  ('COc1cccc2c1C(=O)c1c(O)c3c(c(O)c1C2=O)C[C@@](O)(C(C)=O)C[C@@H]3O[C@H]1C[C@H](N)[C@H](O)[C@H](C)O1', '45-bp dsDNA', 98.0),
  ('CCC1=NN2C(=N)/C(=C/c3ccc(O)cc3)C(=O)N=C2S1', '45-bp dsDNA', -7.5);

Recorded result, `CCC1=NN2C(=N)/C(=C/c3cccs3)C(=O)N=C2S1` , % intercalation at 30 µM: -5.7

Recorded result, `CC[n+]1c(-c2ccccc2)c2cc(N)ccc2c2ccc(N)cc21` , % intercalation at 30 µM: 101.9

====

Target: mouse cGAS (Mus musculus)
Construct: recombinant full-length mouse cGAS in reaction buffer; His6-SUMO (N, cleaved yes); made in house; host or cells: E. coli BL21(DE3) RIL
Sequence (Q8C6L5 whole entry): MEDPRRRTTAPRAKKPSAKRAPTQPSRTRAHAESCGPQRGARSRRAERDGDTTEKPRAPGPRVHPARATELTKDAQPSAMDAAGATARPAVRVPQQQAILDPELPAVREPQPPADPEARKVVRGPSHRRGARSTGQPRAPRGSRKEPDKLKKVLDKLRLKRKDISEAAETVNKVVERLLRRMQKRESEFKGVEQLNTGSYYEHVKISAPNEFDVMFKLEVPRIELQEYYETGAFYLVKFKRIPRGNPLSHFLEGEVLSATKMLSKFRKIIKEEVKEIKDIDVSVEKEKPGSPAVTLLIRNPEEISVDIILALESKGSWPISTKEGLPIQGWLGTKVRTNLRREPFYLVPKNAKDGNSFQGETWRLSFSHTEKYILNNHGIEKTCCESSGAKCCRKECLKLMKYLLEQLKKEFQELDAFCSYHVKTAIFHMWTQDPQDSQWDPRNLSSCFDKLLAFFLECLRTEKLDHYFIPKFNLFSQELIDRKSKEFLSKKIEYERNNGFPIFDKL
Test: RapidFire mass spectrometry (RF-MS) cGAS enzymatic assay, cGAMP product formation
Assay type: biochemical
Settings: Supplementary Table 2; compound 12.5 µM; read-out: % inhibition at 12.5 µM
Known inhibition at 12.5 µM of a selection of compounds
Numeric answer only, unit % assumed.

Below are worked cases with known answers.
INSERT INTO assay_data (compound, readout_kind, value_units, recorded_measurement) VALUES
  ('CCC1=NN2C(=N)/C(=C/c3ccc(O)cc3)C(=O)N=C2S1 [RU169196]', 'inhibition at 12.5 µM', '%', 89),
  ('Cc1nn(-c2nc3ccccc3[nH]2)c(O)c1C1OC(=O)c2ccccc21 (stereo not drawn) [RU166365]', 'inhibition at 12.5 µM', '%', 99),
  ('COc1cccc2c1C(=O)c1c(O)c3c(c(O)c1C2=O)C[C@@](O)(C(=O)CO)C[C@@H]3O[C@H]1C[C@H](N)[C@H](O)[C@H](C)O1 [RU24114]', 'inhibition at 12.5 µM', '%', 96),
  ('CC(C)OC(=O)C(C#N)=Cc1ccc([N+](=O)[O-])o1 [RU94102]', 'inhibition at 12.5 µM', '%', 64),
  ('CCOC(=O)c1n[nH]c2c1C(=O)N(CC)C2=O [RU4893]', 'inhibition at 12.5 µM', '%', 62),
  ('O=C(O)COc1cc(Cl)c(Cl)cc1Cl [RU1535]', 'inhibition at 12.5 µM', '%', 98),
  ('O=C1NC(=S)SC1=Cc1ccccc1F [RU116287]', 'inhibition at 12.5 µM', '%', 63),
  ('COc1cccc2c1C(=O)c1c(O)c3c(c(O)c1C2=O)C[C@@](O)(C(C)=O)C[C@@H]3O[C@H]1C[C@H](N)[C@H](O)[C@H](C)O1 [RU83653]', 'inhibition at 12.5 µM', '%', 91),
  ('CC[C@@]1(O)C[C@H](O[C@H]2C[C@H](N(C)C)[C@H](O)[C@H](C)O2)c2c(cc3c(c2O)C(=O)c2c(O)cccc2C3=O)[C@H]1C(=O)OC [RU891]', 'inhibition at 12.5 µM', '%', 98),
  ('CS(=O)(=O)c1ncc2c(n1)c(=O)c(C#N)c1[nH]c3ccccc3c(=O)n12 [RU207488]', 'inhibition at 12.5 µM', '%', 67);

Recorded result, O=C1c2c(O)ccc(O)c2C(=O)c2c(NCCNCCO)ccc(NCCNCCO)c21 [RU627] , inhibition at 12.5 µM: 94

Recorded result, Cc1nnc(NC(=O)c2ccc(S(=O)(=O)Nc3cccc(C(F)(F)F)c3)o2)s1 [RU174368] , inhibition at 12.5 µM: 76

Recorded result, COC(=O)C1=C(C)NC(C)=C(C(=O)OC)C1c1ccccc1[N+](=O)[O-] [RU199] , inhibition at 12.5 µM: 91

Recorded result, CCC1=NN2C(=N)/C(=C/c3cccs3)C(=O)N=C2S1 [RU169248] , inhibition at 12.5 µM: 97

Recorded result, O=C1CN2C(=C1c1ccccc1)NC(=O)c1sc3ccccc3c12 [RU207450] , inhibition at 12.5 µM: 70
